molecular target: gastrin receptors or type-B cholecystokinin (CCK-B) receptors (Oryctolagus cuniculus); construct: Rabbit gastric mucous-membrane cells were prepared by conventional techniques; endogenous in cells; host or cells: freshly isolated rabbit gastric mucosal cells, enriched by elutriation to about 70% parietal cells; experiment: Inhibition of the gastrin-induced increase of cytosolic calcium in rabbit gastric mucous-membrane cells (Fura 2); format: cell-based; settings: data taken from Table 4 (rabbit gastric mucous cells), reprinted in Table 6
Entries and their CCK-B-antagonistic activity IC50 (II)
Expressed in nM, but write only the number.

The following compounds have reported results that may help.
> print(dat)
                            compound.smiles  measured.number
1  O=C(O)C[C@@H](Cc1ccccc1)NC(=O)CC[C@@H](NC(=O)c1cc(Cl)cc(Cl)c1)C(=O)N1CCC2(CCCC2)CC1               30
2  O=C(CC[C@@H](NC(=O)c1cc(Cl)cc(Cl)c1)C(=O)N1CCC2(CCCC2)CC1)N[C@H](Cc1ccc2ccccc2c1)C(=O)O               30

Lookup: Requested read-out: CCK-B-antagonistic activity IC50 (II). Entry: O=C(CC[C@@H](NC(=O)c1cc(Cl)cc(Cl)c1)C(=O)N1CCC2(CCCC2)CC1)N[C@@H](Cc1c[nH]c2ccccc12)C(=O)O
Found: 30

====

Target: gastrin receptors or type-B cholecystokinin (CCK-B) receptors (Oryctolagus cuniculus, UniProt P46627)
Construct: Rabbit gastric mucous-membrane cells were prepared by conventional techniques; endogenous in cells; host or cells: freshly isolated rabbit gastric mucosal cells, enriched by elutriation to about 70% parietal cells
Sequence (P46627 1-452): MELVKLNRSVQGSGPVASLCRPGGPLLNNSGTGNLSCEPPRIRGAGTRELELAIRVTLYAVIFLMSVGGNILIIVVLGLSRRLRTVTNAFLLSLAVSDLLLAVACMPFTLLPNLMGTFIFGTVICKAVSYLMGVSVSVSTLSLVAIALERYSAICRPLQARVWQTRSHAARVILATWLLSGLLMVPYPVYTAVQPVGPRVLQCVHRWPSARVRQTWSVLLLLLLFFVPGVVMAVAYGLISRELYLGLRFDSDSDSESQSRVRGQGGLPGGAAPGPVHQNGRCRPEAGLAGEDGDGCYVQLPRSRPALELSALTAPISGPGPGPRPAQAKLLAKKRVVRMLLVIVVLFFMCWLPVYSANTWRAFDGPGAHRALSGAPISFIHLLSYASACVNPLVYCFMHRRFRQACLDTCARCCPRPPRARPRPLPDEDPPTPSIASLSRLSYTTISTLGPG
Test: Inhibition of the gastrin-induced increase of cytosolic calcium in rabbit gastric mucous-membrane cells (Fura 2)
Format: cell-based
Conditions: rabbit gastric mucous cells enriched in parietal cells, gastrin 5×10^-8
measurement_kind: IC50, inhibition of the increase of cytosolic calcium
Don't forget the unit after the value.

Example compounds with recorded IC50, inhibition of the increase of cytosolic calcium:
> print(dat)
                                   compound       result
1  CN(C(=O)CC[C@@H](NC(=O)c1cc(Cl)cc(Cl)c1)C(=O)N1CCC2(CCCC2)CC1)c1ccccc1C(=O)O [Compound 51]  0.05 µmol/L
2  CN(C(=O)CC[C@@H](NC(=O)c1cc(Cl)cc(Cl)c1)C(=O)N1CCC2(CCCC2)CC1)[C@@H](Cc1c[nH]c2ccccc12)C(=O)O [Compound 22]  0.05 µmol/L

Lookup: Item under review: CC(C)CC(NC(=O)CC[C@@H](NC(=O)c1cc(Cl)cc(Cl)c1)C(=O)N1CCC2(CCCC2)CC1)C(=O)O (stereo partly drawn) [Compound 6] . Reported IC50, inhibition of the increase of cytosolic calcium?
Found: 0.05 µmol/L
